Readings of log10 of IC50 for the listed compounds
- Tested On: CDK2 (Homo sapiens, UniProt P24941)
- Construct: endogenous in cells; host or cells: OVCAR3 cells
- Method Notes: Phospho-RB measurement in OVCAR3 cells (HTRF phospho-RB cellular kit)
- Format: cell-based
- Assay Conditions: inhibition of RB phosphorylation at S807/811 (HTRF, TR-FRET ratio 665/620), 24 h compound treatment, 0.3 to 10,000 nM
Observed Property: log10 of IC50 (log10 of the value in µM)

>  <Compound>
O=S1(=O)CC2(CC(Nc3nccc(-c4sc(C56CC(C5)C6)nc4-c4cccc(NS(=O)(=O)N5CC6CCC(CC6)C5)c4F)n3)C2)C1

>  <log10 of IC50>
0.54

$$$$
>  <Compound>
CC(C)(C)c1nc(-c2cccc(NS(=O)(=O)N3CCc4ccc(C#N)cc43)c2F)c(-c2ccnc(NC3CC4(C3)CS(=O)(=O)C4)n2)s1

>  <log10 of IC50>
-1.21

$$$$
>  <Compound>
CC(C)(c1nc(-c2cccc(NS(=O)(=O)N3CCc4ccccc43)c2F)c(-c2ccnc(N[C@H]3CC[C@H](S(C)(=O)=O)CC3)n2)s1)C(F)(F)F

>  <log10 of IC50>
-0.91

$$$$
>  <Compound>
CS(=O)(=O)[C@H]1CC[C@H](Nc2nccc(-c3sc(N4C5CCC4CN(C4CC(F)(F)C4)C5)nc3-c3cccc(NS(=O)(=O)N4CCc5ccc(C(F)(F)F)cc54)c3F)n2)CC1

>  <log10 of IC50>
-0.27

$$$$
>  <Compound>
CC(C)(C)c1nc(-c2cccc(NS(=O)(=O)N3CCn4ccnc4C3)c2F)c(-c2ccnc(NC3CCN(S(C)(=O)=O)CC3)n2)s1

>  <log10 of IC50>
0.28

$$$$
>  <Compound>
CC(C)(C)c1nc(-c2cccc(NS(=O)(=O)N3CCc4ccc(C#N)cc43)c2F)c(-c2ccnc(Nc3ccc(N4CCNCC4)cc3)n2)s1

>  <log10 of IC50>
-0.34

$$$$
>  <Compound>
CC(C)(C)c1nc(-c2cccc(NS(=O)(=O)N3Cc4cccc(OCC#N)c4C3)c2F)c(-c2ccnc(NC3CCN(S(C)(=O)=O)CC3)n2)s1

>  <log10 of IC50>
-0.93

$$$$
>  <Compound>
N#Cc1ccc2c(c1)N(S(=O)(=O)Nc1cccc(-c3nc(C45CC(C4)C5)sc3-c3ccnc(NC4CC5(C4)CS(=O)(=O)C5)n3)c1F)CC2

>  <log10 of IC50>
-0.98

$$$$
>  <Compound>
COc1cccc2c1CN(S(=O)(=O)Nc1cccc(-c3nc(N4C5CCC4CN(C)C5)sc3-c3ccnc(NC4CC5(C4)CS(=O)(=O)C5)n3)c1F)C2

>  <log10 of IC50>
-1.52

$$$$
>  <Compound>
CC(C)(C)c1nc(-c2cccc(NS(=O)(=O)N3CCC(F)(F)C3)c2F)c(-c2ccnc(NC3CC4(C3)CS(=O)(=O)C4)n2)s1

>  <log10 of IC50>
0.07

$$$$
>  <Compound>
C[C@H]1COC[C@H](C)N1c1nc(-c2cccc(NS(=O)(=O)N3CCc4ccc(C(F)(F)F)cc43)c2F)c(-c2ccnc(N[C@H]3CC[C@H](S(C)(=O)=O)CC3)n2)s1

>  <log10 of IC50>
-0.99

$$$$
>  <Compound>
O=S1(=O)CC2(CC(Nc3nccc(-c4sc(C56CC(C5)C6)nc4-c4cccc(NS(=O)(=O)N5CCc6c5cccc6C(F)(F)F)c4F)n3)C2)C1

>  <log10 of IC50>
-0.56

$$$$
>  <Compound>
CC(C)(C)c1nc(-c2cccc(NS(=O)(=O)N3CCc4ccccc43)c2F)c(-c2ccnc(NC3CCN(S(=O)(=O)N4CCNCC4)CC3)n2)s1

>  <log10 of IC50>
-1.00

$$$$
>  <Compound>
CC(C)(C)c1nc(-c2cccc(NS(=O)(=O)N3CCOc4ccccc43)c2F)c(-c2ccnc(NC3CCN(S(=O)(=O)N4CCNCC4)CC3)n2)s1

>  <log10 of IC50>
0.17

$$$$
>  <Compound>
CC(C)(C)c1nc(-c2cccc(NS(=O)(=O)N3Cc4cccc(C5CCCCC5)c4C3)c2F)c(-c2ccnc(NC3CCN(S(C)(=O)=O)CC3)n2)s1

>  <log10 of IC50>
0.18

$$$$
>  <Compound>
CN(C)C(=O)c1ccc2c(c1)N(S(=O)(=O)Nc1cccc(-c3nc(C(C)(C)C)sc3-c3ccnc(NC4CC5(C4)CS(=O)(=O)C5)n3)c1F)CC2

>  <log10 of IC50>
-0.18

$$$$
>  <Compound>
O=S1(=O)CC2(CC(Nc3nccc(-c4sc(C56CC(C(F)(F)F)(C5)C6)nc4-c4cccc(NS(=O)(=O)N5CCc6ccc(Cl)cc65)c4F)n3)C2)C1

>  <log10 of IC50>
-0.55

$$$$
>  <Compound>
CC(C)(C)c1nc(-c2cccc(NS(=O)(=O)N3CCc4c(CN5CCOCC5)cccc43)c2F)c(-c2ccnc(NC3CCN(S(C)(=O)=O)CC3)n2)s1

>  <log10 of IC50>
-0.47

$$$$
>  <Compound>
CC(C)(C)c1nc(-c2cccc(NS(=O)(=O)N3Cc4ccccc4C3c3ccccc3)c2F)c(-c2ccnc(NC3CC4(C3)CS(=O)(=O)C4)n2)s1 (centres unmarked)

>  <log10 of IC50>
0.57

$$$$
>  <Compound>
CC(C)(C)c1nc(-c2cccc(NS(=O)(=O)N3CCc4ccccc4C3)c2F)c(-c2ccnc(NC3CCN(S(C)(=O)=O)CC3)n2)s1

>  <log10 of IC50>
-0.74

$$$$
>  <Compound>
CC(C)(c1nc(-c2cccc(NS(=O)(=O)N3CCc4ccc(C(F)(F)F)cc43)c2F)c(-c2ccnc(N[C@H]3CC[C@H](S(C)(=O)=O)CC3)n2)s1)C(F)(F)F

>  <log10 of IC50>
-0.53

$$$$
>  <Compound>
N#Cc1ccc2c(c1)N(S(=O)(=O)Nc1cccc(-c3nc(C45CC(C4)C5)sc3-c3ccnc(NC4CCN(S(=O)(=O)N5CCNCC5)CC4)n3)c1F)CC2

>  <log10 of IC50>
-0.93

$$$$
>  <Compound>
CN1CC2CCC(C1)N2c1nc(-c2cccc(NS(=O)(=O)N3CCc4ccc(C(F)(F)F)cc43)c2F)c(-c2ccnc(NC3CC4(C3)CS(=O)(=O)C4)n2)s1 [Example 44]

>  <log10 of IC50>
-1.25

$$$$
